Record form. Attribute: self-cleavage. Fill in for each entry.
B1: HDV Ribozyme (parent)
chain: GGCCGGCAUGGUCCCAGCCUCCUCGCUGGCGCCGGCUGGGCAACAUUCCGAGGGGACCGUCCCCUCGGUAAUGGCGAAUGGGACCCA

variants of: B1; test: self-cleavage, relative activity (ratio to wild type); higher = more cleavage; co-transcriptional
Simply state the number, no unit and no words.

(Q) Report measured self-cleavage; entry is GGCCGGCAUGGUCCCAGCCUCCUCGCUGGCGCCGGUUGGGCAACAUUCCGAGGGGACCGUGCCCUCGGUAAUGGCGAAUGGGACCCA
(A) 0.466

(Q) Report measured self-cleavage; entry is GGCCAGCAUGGUCCCAGCCUCCUCGCCGGCGCCGGCUGGGCAACAUUCCGAGGGGACCGUCCCCUCGGUAAUGGCGAAUGGGACCCA
(A) 0.0594

(Q) Report measured self-cleavage; entry is GGCCGGCAUGGUCCCAGCCUCCUCGCUGGCGCCGGCUGGGCAACAUUCCGAGGGGACCGUCCCCUCGGUAAUGGCAAAUCGGACCCA
(A) 0.0719

(Q) Report measured self-cleavage; entry is GGCCGUCAUGGUCCCAGCCUCCUCGCUGGCGCCGGCUGGGCAACAUUCCGAGGGUACCGUCCCCUCGGUAAUGGCGAAUGGGACCCA
(A) 0.942

(Q) Report measured self-cleavage; entry is GGCCGGCAUGGUCCCAGCCUCCUCGCUGGCGCCGGCUGGGCAACAUUCCGAGGGGACCGUCCACUCGGUAAUGUCGAAUGGGACCCA
(A) 0.515

(Q) Report measured self-cleavage; entry is GCCCGGCAUGGUCCCAGCCUCCUCGCUUGCGCCGGCUGGGCAACAUUCCGAGGGGACCGUCCCCUCGGUAAUGGCGAAUGGGACCCA
(A) 0.014

(Q) Report measured self-cleavage; entry is GUCCGGCAUGGUCCCAGCCUCCUCGCUGGCGCCGGCUGGGCAACAUUCCGAGGGGACCUUCCCCUCGGUAAUGGCGAAUGGGACCCA
(A) 0.128

(Q) Report measured self-cleavage; entry is GGCCGGCAUGGUCCCAGCCUCUUCGCUGGCGCCGGCUGGGCAACAUUCCGAGGGGACCGUCCCCUCGGUAGUGGCGAAUGGGACCCA
(A) 0.506

(Q) Report measured self-cleavage; entry is GGCCGGCAUGGUCCCAGCCUCCUCCCUGGCGCCCGCUGGGCAACAUUCCGAGGGGACCGUCCCCUCGGUAAUGGCGAAUGGGACCCA
(A) 0.0426

(Q) Report measured self-cleavage; entry is GGCCGGCAUGGUCCCAGCCUCCUCGCUGGCGCCGGCUGGGCAACAUACCGAGGGGACCGUCCCCUCGGUAAUGUCGAAUGGGACCCA
(A) 0.447

(Q) Report measured self-cleavage; entry is GGCCGGCAUGGUCCCAGCCUCCUCGCUGGCGCCGGCUGGGCAACAUUCCGAGGUGACCGUCCCCUCGGUACUGGCGAAUGGGACCCA
(A) 0.654

(Q) Report measured self-cleavage; entry is GGCCGGCAUGGUCCCAGCCUCCUCGCUGGCGACGGCUGGCCAACAUUCCGAGGGGACCGUCCCCUCGGUAAUGGCGAAUGGGACCCA
(A) 0.134

(Q) Report measured self-cleavage; entry is GGCCGGCAUGGUCCCAGCCUCCUCGCUGGCGCCGGCUGGCCAACAUUCCGAGGGGUCCGUCCCCUCGGUAAUGGCGAAUGGGACCCA
(A) 0.381

(Q) Report measured self-cleavage; entry is GGCCGGCAAGGUCCCAGCCUCCUCGCUGGCGCCGGCUGGGGAACAUUCCGAGGGGACCGUCCCCUCGGUAAUGGCGAAUGGGACCCA
(A) 0.831

(Q) Report measured self-cleavage; entry is GGCCGGCAUGGUCCCAGCCUCCGCGCUGGCGCCGGCUGGGCAACAUUCCGCGGGGACCGUCCCCUCGGUAAUGGCGAAUGGGACCCA
(A) 0.63

(Q) Report measured self-cleavage; entry is GGCCGGCAUGGUCCCAGCCUCCUCGCCGGCGCCGGCUUGGCAACAUUCCGAGGGGACCGUCCCCUCGGUAAUGGCGAAUGGGACCCA
(A) 0.131

(Q) Report measured self-cleavage; entry is GGCCGGCAUGGUCCCAGCCUCCCCGCUGGCGGCGGCUGGGCAACAUUCCGAGGGGACCGUCCCCUCGGUAAUGGCGAAUGGGACCCA
(A) 0.0415

(Q) Report measured self-cleavage; entry is GGCCGGCAUGAUCCCAGCCUCCUCGCUGGCGCCGGCUGGGCAACAUCCCGAGGGGACCGUCCCCUCGGUAAUGGCGAAUGGGACCCA
(A) 0.475

(Q) Report measured self-cleavage; entry is GGCCGGCAUGGUCCCAGCCUCCUCGCUGACGCCGGCUGGGCAACAUUCCGAAGGGACCGUCCCCUCGGUAAUGGCGAAUGGGACCCA
(A) 0.0554

(Q) Report measured self-cleavage; entry is GGCCGGCAUGGUCCCAGCCUCCUCGCUGGCGCCGGCUGGGCAACACUCCGAGGGGACCGUCCCCUCGGUAAUGGCGAUUGGGACCCA
(A) 0.302

(Q) Report measured self-cleavage; entry is GGCCGGCAUGGUCCCAGCCUCCUCGCUGGCGCCGGCUGGGCAACUUUCCGAGGGGACCGUCCCCUCGGUAAUGGCGAACGGGACCCA
(A) 0.26

(Q) Report measured self-cleavage; entry is GGCCGGCAUGGUCCCAGCCUCCUCGCUGGCGACGGCUGGGCAACAUUCCGAGGCGACCGUCCCCUCGGUAAUGGCGAAUGGGACCCA
(A) 0.356
